biological target: recombinant HCV NS5B (HCV RNA-dependent RNA polymerase) (Hepatitis C virus genotype 1b, UniProt P26663); assay: biochemical; conditions: related polymerase activity (Example 27 list); read-out: IC50
Sequence (P26663 2420-3010 limits assumed): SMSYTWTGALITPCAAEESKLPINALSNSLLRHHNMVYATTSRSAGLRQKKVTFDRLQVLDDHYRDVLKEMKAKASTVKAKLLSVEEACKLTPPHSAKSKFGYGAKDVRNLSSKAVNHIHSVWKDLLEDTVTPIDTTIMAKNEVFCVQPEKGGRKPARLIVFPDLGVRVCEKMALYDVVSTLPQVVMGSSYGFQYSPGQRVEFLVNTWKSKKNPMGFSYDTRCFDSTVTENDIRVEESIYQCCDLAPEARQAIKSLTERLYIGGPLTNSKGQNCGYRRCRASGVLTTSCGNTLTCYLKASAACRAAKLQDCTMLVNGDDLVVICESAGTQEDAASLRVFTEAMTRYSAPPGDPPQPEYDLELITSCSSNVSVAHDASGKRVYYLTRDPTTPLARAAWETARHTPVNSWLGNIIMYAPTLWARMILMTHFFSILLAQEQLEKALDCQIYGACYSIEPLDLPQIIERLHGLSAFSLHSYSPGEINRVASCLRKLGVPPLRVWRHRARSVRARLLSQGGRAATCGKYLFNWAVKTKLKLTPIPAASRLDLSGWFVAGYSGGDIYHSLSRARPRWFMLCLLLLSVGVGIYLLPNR
READOUT: IC50

structure_string=Cc1csc(C(=O)N(C)c2cc(-c3ccccc3)sc2C(=O)O)c1 readout=IC50 assay_value="5 to 20 µM"
structure_string=Cc1ccc(C(=O)N(Cc2ccc(Cl)cc2)c2cc(-c3ccccc3)sc2C(=O)O)cc1 readout=IC50 assay_value="< 5 µM"
structure_string=Cc1cc(S(=O)(=O)Nc2cc(-c3ccc(F)cc3)sc2C(=O)O)c(C)cc1Cl readout=IC50 assay_value="< 5 µM"
structure_string=Cc1ccccc1S(=O)(=O)Nc1cc(-c2ccccn2)sc1C(=O)O readout=IC50 assay_value="< 5 µM"
structure_string=Cc1ccc(S(=O)(=O)Nc2cc(-c3ccc(S(C)(=O)=O)cc3)sc2C(=O)O)c(C)c1 readout=IC50 assay_value="< 5 µM"
structure_string=Cc1ccccc1S(=O)(=O)Nc1cc(-c2ccccc2C#N)sc1C(=O)O readout=IC50 assay_value="5 to 20 µM"
structure_string=CC(=O)c1ccc(-c2cc(NS(=O)(=O)c3ccc(Cl)cc3)c(C(=O)O)s2)cc1 readout=IC50 assay_value="< 5 µM"
structure_string=Cc1ccc(C(=O)N(c2cc(-c3ccc(F)cc3)sc2C(=O)O)C(C)C)cc1 readout=IC50 assay_value="< 5 µM"

----------
target: recombinant HCV NS5B (HCV RNA-dependent RNA polymerase) (Hepatitis C virus genotype 1b, UniProt P26663); assay: biochemical; conditions: related polymerase activity (Example 27 list); read-out: IC50
pIC50: −log10 of the molar value.
// reported pIC50 for each item listed
READOUT: pIC50

compound="CC(C)Cc1ccc(-c2cc(NS(=O)(=O)c3cc(OCC(F)(F)F)ccc3OCC(F)(F)F)c(C(=O)O)s2)cc1 [Compound #227]" readout=pIC50 assay_value="< 4.70"
compound="Nc1ccccc1S(=O)(=O)Nc1cc(-c2ccccc2)sc1C(=O)O [Compound 146]" readout=pIC50 assay_value="> 5.30"
compound="C=Cc1cc(NS(=O)(=O)c2ccccc2C)c(C(=O)O)s1 [Compound 71]" readout=pIC50 assay_value="4.70 to 5.30"
compound="Cc1ccccc1S(=O)(=O)Nc1cc(-c2ccc(Cl)s2)sc1C(=O)O [Compound 57]" readout=pIC50 assay_value="> 5.30"
compound="CC(=O)c1ccc(-c2cc(NS(=O)(=O)c3ccccc3C)c(C(=O)O)s2)cc1 [Compound 166]" readout=pIC50 assay_value="> 5.30"
compound="O=C(O)c1cc(S(=O)(=O)Nc2cc(-c3ccccc3)sc2C(=O)O)c(F)cc1Cl [Compound 221]" readout=pIC50 assay_value="< 4.70"
compound="CC(C)CN(C(=O)c1ccc(Cl)cc1Cl)c1cc(-c2ccccc2)sc1C(=O)O [Compound 204]" readout=pIC50 assay_value="> 5.30"
compound="Cc1ccccc1S(=O)(=O)Nc1cc(-c2cccc(Cl)c2)sc1C(=O)O [Compound 65]" readout=pIC50 assay_value="> 5.30"
compound="O=C(O)c1sc(-c2ccccc2)cc1NS(=O)(=O)c1ccccc1C(F)(F)F [Compound 35]" readout=pIC50 assay_value="< 4.70"
compound="Cc1ccc(C)c(S(=O)(=O)Nc2cc(-c3ccc([N+](=O)[O-])cc3)sc2C(=O)O)c1 [Compound 100]" readout=pIC50 assay_value="> 5.30"
compound="O=C(O)c1sc(-c2ccccc2)cc1NS(=O)(=O)c1cccc(F)c1 [Compound 49]" readout=pIC50 assay_value="> 5.30"
compound="Cc1ccc(C(=O)N(C)c2cc(-c3ccc(CO)cc3)sc2C(=O)O)cc1 [Compound 195]" readout=pIC50 assay_value="4.70 to 5.30"
compound="CC(C)=CCN(C(=O)c1ccc(Cl)cc1Cl)c1cc(-c2ccccc2)sc1C(=O)O [Compound 244]" readout=pIC50 assay_value="> 5.30"
compound="COc1cc(C)ccc1C(=O)N(C)c1cc(-c2ccccc2)sc1C(=O)O [Compound 205]" readout=pIC50 assay_value="4.70 to 5.30"
compound="Cc1ccccc1S(=O)(=O)Nc1cc(-c2cc3ccccc3s2)sc1C(=O)O [Compound 230]" readout=pIC50 assay_value="> 5.30"
compound="Cc1ccccc1S(=O)(=O)Nc1cc(-c2ccc(F)c(F)c2)sc1C(=O)O [Compound 70]" readout=pIC50 assay_value="> 5.30"
compound="Cc1ccc(S(=O)(=O)Nc2cc(-c3ccc(C(=O)O)cc3)sc2C(=O)O)c(C)c1 [Compound 332]" readout=pIC50 assay_value="> 5.30"
